- system under test: T1, human IgE (human, UniProt P01854 1-428)
- T1 construct: written under the same molecule; also called IgE (Abcam ab65866); soluble IgE
- T1 sequence (P01854 other isoform, or with tags, fused parts or gaps limits assumed, form in doubt): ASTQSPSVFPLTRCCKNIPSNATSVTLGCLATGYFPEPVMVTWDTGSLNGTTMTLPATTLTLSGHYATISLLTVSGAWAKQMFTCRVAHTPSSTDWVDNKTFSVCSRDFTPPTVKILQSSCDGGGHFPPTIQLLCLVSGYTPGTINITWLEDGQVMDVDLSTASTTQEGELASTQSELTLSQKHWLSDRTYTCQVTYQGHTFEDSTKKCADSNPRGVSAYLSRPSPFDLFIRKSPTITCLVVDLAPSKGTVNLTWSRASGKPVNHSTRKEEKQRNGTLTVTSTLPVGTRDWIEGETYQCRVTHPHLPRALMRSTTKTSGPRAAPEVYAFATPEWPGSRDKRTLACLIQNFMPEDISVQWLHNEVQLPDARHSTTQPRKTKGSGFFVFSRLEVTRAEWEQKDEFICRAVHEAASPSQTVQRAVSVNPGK
- procedure details: ELISA, clone lysate on IgE-coated plate
metric name: Confirm OD450 Duplicate1

| binder | Confirm OD450 Duplicate1 |
| --- | --- |
| 8F11 (VHH, also called hzB10v40 VHH, CDR1 site 8 N to T) VHH: EVQLLESGGGEVQPGGSLRLSCVASGLTFSSYTMGWLRQAPGKEREFVGLSGSSSTSTYYAESVKGRFTISRDNAKNTVYLQMTSLRAEDTAVYYCAARRLLSTYWSDRSWDFWGQGTLVTVEP | 0.52 |
| 35G3 (VHH) VHH: EVQLLESGGGEVQPGGSLRLSCVASGLTFSSYNMGWLRQAPGKEREFVGLSGSSSTSTYYAESVKGRFTISRDNAKNTVYLQMTSLRAEDTAVYYCAARRLLSRYWSDRSWDFWGQGTLVTVEP | 0.593 |
| 4-1F11 (VHH, also called hzB10v40 VHH, CDR1 site 4 F to P) VHH: EVQLLESGGGEVQPGGSLRLSCVASGLTPSSYNMGWLRQAPGKEREFVGLSGSSSTSTYYAESVKGRFTISRDNAKNTVYLQMTSLRAEDTAVYYCAARRLLSTYWSDRSWDFWGQGTLVTVEP | 0.582 |
| 6A9 (VHH, also called hzB10v40 VHH, CDR1 site 6 S to E) VHH: EVQLLESGGGEVQPGGSLRLSCVASGLTFSEYNMGWLRQAPGKEREFVGLSGSSSTSTYYAESVKGRFTISRDNAKNTVYLQMTSLRAEDTAVYYCAARRLLSTYWSDRSWDFWGQGTLVTVEP | 0.475 |
| 6F11 (VHH, also called hzB10v40 VHH, CDR1 site 6 S to R) VHH: EVQLLESGGGEVQPGGSLRLSCVASGLTFSRYNMGWLRQAPGKEREFVGLSGSSSTSTYYAESVKGRFTISRDNAKNTVYLQMTSLRAEDTAVYYCAARRLLSTYWSDRSWDFWGQGTLVTVEP | 0.417 |
| 5A10 (VHH, also called hzB10v40 VHH, CDR1 site 5 S to A) VHH: EVQLLESGGGEVQPGGSLRLSCVASGLTFASYNMGWLRQAPGKEREFVGLSGSSSTSTYYAESVKGRFTISRDNAKNTVYLQMTSLRAEDTAVYYCAARRLLSTYWSDRSWDFWGQGTLVTVEP | 0.554 |
| 6G9 (VHH, also called hzB10v40 VHH, CDR1 site 6 S to A) VHH: EVQLLESGGGEVQPGGSLRLSCVASGLTFSAYNMGWLRQAPGKEREFVGLSGSSSTSTYYAESVKGRFTISRDNAKNTVYLQMTSLRAEDTAVYYCAARRLLSTYWSDRSWDFWGQGTLVTVEP | 0.556 |
| 10G10 (VHH, also called hzB10v40 VHH, CDR1 site 10 G to A) VHH: EVQLLESGGGEVQPGGSLRLSCVASGLTFSSYNMAWLRQAPGKEREFVGLSGSSSTSTYYAESVKGRFTISRDNAKNTVYLQMTSLRAEDTAVYYCAARRLLSTYWSDRSWDFWGQGTLVTVEP | 0.484 |

Attribution: patent US20250163186A1
